# Test system: TTJ Tsc2+
# Construct: Tsc2 add-back
# EXPERIMENT DESCRIPTION: cells
# Set-up: cell proliferation by crystal violet staining, absorbance 540 nm
# RECORDED CONDITIONS: 72 h
QUANTITY KIND: IC50 (nM)

>>> print(df.to_string())
                                   molecule  unit_abbrev  test_value
0  CC(C)n1nc(-c2ccc3oc(N)nc3c2)c2c(N)ncnc21 [MLN0128]           nM        50.1

* * *

# Test system: 705 Tsc2-
# Construct: Tsc2-null
# EXPERIMENT DESCRIPTION: cells
# Design: cell proliferation by crystal violet staining, absorbance 540 nm
# RECORDED CONDITIONS: 72 h
QUANTITY KIND: IC50 (nM)

>>> df
                           substance_smiles  test_value
0  CC(C)n1nc(-c2ccc3oc(N)nc3c2)c2c(N)ncnc21        50.1

* * *

# Test system: HCV29 TSC1+
# Construct: TSC1 add-back
# EXPERIMENT DESCRIPTION: cells
# Parameters: cell proliferation by crystal violet staining, absorbance 540 nm
# RECORDED CONDITIONS: HCV-29, 72 h
pIC50: −log10 of the molar value.
QUANTITY KIND: pIC50

In [3]: df
Out[3]:
                                   molecule  target_or_test_system  test_value
0  CC(C)n1nc(-c2ccc3oc(N)nc3c2)c2c(N)ncnc21 [MLN0128]            HCV29 TSC1+        7.45

* * *

# System: TTJ Tsc2-
# Construct: Tsc2-null
# EXPERIMENT DESCRIPTION: cells
# Set-up: cell proliferation by crystal violet staining, absorbance 540 nm
# RECORDED CONDITIONS: 72 h
QUANTITY KIND: IC50 (nM)

In [3]: df
Out[3]:
                           substance_smiles  quantity_kind  test_value
0  CC(C)n1nc(-c2ccc3oc(N)nc3c2)c2c(N)ncnc21           IC50        63.1

* * *

# Test system: SNU886 TSC2+
# Construct: TSC2 add-back
# EXPERIMENT DESCRIPTION: cells
# Parameters: cell proliferation by crystal violet staining, absorbance 540 nm
# RECORDED CONDITIONS: SNU-886, 72 h
QUANTITY KIND: IC50 (nM)

>>> print(df.to_string())
                           substance_smiles  unit_abbrev  test_value
0  CC(C)n1nc(-c2ccc3oc(N)nc3c2)c2c(N)ncnc21           nM        44.7

* * *

# Test system: KTP-269-3C4 Tsc1-
# Construct: Tsc1-null
# EXPERIMENT DESCRIPTION: cells
# Set-up: cell proliferation by crystal violet staining, absorbance 540 nm
# RECORDED CONDITIONS: 72 h
pIC50: −log10 of the molar value.
QUANTITY KIND: pIC50

In [3]: df
Out[3]:
                           substance_smiles  target_or_test_system  quantity_kind  test_value
0  CC(C)n1nc(-c2ccc3oc(N)nc3c2)c2c(N)ncnc21      KTP-269-3C4 Tsc1-          pIC50        7.57
